test system: mice; assay: phenyl-p-benzoquinone writhing assay (analgesic activity); type: in vivo, mice (male, Charles River, CD-1); details: screening dose of 20 mg/kg, s.c.
Recorded measurements of % Inhibition of writhing, one per entry

| smilesStr | unitsSymbol | % Inhibition of writhing |
| --- | --- | --- |
| Cc1ccc(C2(Oc3c(F)c(F)c(F)c(F)c3F)CCNCC2)cc1.O=C(O)/C=C\C(=O)O | % | 56 |
| Cl.Fc1ccc(C2(Oc3c(F)c(F)c(F)c(F)c3F)CCNCC2)cc1 | % | 58 |
| COc1ccc(C2(Oc3c(F)c(F)c(F)c(F)c3F)CCN(C)CC2)cc1.Cl | % | 53 |
| N#CN1CCC(Oc2c(F)c(F)c(F)c(F)c2F)(c2ccccc2)CC1 | % | 52 |
| Fc1c(F)c(F)c(OC2(c3ccc(Cl)cc3)CCNCC2)c(F)c1F.O=C(O)/C=C/C(=O)O | % | 66 |
| CN1CCC(Oc2c(F)c(F)c(F)c(F)c2F)(c2ccc(F)cc2)CC1.Cl | % | 49 |
